- Study system: UniProt:P47936
- Sequence (P47936 whole entry): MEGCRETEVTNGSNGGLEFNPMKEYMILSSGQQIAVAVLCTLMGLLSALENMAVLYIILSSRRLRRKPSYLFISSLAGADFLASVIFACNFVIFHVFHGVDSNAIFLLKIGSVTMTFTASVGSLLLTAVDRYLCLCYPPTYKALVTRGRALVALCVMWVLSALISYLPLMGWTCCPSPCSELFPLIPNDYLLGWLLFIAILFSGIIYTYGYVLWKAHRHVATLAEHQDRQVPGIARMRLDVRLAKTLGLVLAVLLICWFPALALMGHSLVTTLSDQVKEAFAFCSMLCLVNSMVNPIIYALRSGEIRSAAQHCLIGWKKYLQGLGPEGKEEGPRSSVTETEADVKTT
Endpoint label: Ki (nM)
Just the number please, in nM, no unit attached.

# input Item CCCCCCC(C)(C)c1cc(O)c2c(c1)oc(=O)c1ccc(OC)cc12 [AM1710] has what recorded Ki?
# output 0.49
